Below, each of the molecules is paired with its reported GI50 value.
System: HT29 colon
assay-details: NCI tumour cell line growth inhibition, 48 h
test-readout: GI50

[[record]]
molecule = "COc1cc(-c2nc3ccccc3[nH]2)ccc1OCC(=O)N=Nc1c(O)[nH]c2ccc(Cl)cc12"
system_under_test = "HT29 colon"
result = "1.62 µM"

[[record]]
molecule = "O=C1OCC2=C1C(c1cccc(C(F)(F)F)c1)c1cc3c(cc1N2CCO)OCO3 (stereo unspecified)"
system_under_test = "HT29 colon"
result = "1.31 µM"

[[record]]
molecule = "COc1cc(/C=C2\\CCCC3C2=Nc2ccccc2NC3c2cc(OC)c(OC)c(OC)c2)cc(OC)c1OC (stereo unspecified)"
system_under_test = "HT29 colon"
result = "1.21 µM"

[[record]]
molecule = "CSC1=Nc2c(c(C)c(-c3ccccc3)n2CCCCl)C2=NC(=O)CN12"
system_under_test = "HT29 colon"
result = "3.85 µM"

[[record]]
molecule = "CCCCCCCCCCCCOC1C(CNCC2OC3OC(C)(C)OC3C2NC(=O)Nc2ccc(C(F)(F)F)cc2)OC2OC(C)(C)OC21 (stereo unspecified)"
system_under_test = "HT29 colon"
result = "3.14 µM"

[[record]]
molecule = "COc1ccc2[nH]c(-c3ccccc3)c(C=C(C#N)C#N)c2c1"
system_under_test = "HT29 colon"
result = "3.13 µM"

